The entries below come with measured pIC50 values attached.
biological target: Cdk9/cyclinT1 (Homo sapiens, UniProt P50750); assay: Cdk9/cyclinT1 IMAP Protocol (fluorescence polarization kinase assay); details: Cdk9_cyclinT1_IC50, Table V; generated using one of the two Cdk9/cyclinT1 assays (IMAP or Alpha Screen), not stated which; ATP 6 uM
Sequence (P50750 whole entry): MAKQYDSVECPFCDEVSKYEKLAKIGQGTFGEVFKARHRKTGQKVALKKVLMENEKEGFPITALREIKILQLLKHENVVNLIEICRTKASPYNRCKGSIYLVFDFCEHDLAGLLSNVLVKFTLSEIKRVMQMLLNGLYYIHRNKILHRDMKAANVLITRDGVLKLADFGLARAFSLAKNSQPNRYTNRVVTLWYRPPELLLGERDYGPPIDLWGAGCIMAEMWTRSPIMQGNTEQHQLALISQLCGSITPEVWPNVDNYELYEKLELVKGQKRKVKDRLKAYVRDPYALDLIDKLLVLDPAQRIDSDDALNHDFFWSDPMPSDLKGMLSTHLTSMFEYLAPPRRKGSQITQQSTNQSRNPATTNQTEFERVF
Sequence (O60563 whole entry partner): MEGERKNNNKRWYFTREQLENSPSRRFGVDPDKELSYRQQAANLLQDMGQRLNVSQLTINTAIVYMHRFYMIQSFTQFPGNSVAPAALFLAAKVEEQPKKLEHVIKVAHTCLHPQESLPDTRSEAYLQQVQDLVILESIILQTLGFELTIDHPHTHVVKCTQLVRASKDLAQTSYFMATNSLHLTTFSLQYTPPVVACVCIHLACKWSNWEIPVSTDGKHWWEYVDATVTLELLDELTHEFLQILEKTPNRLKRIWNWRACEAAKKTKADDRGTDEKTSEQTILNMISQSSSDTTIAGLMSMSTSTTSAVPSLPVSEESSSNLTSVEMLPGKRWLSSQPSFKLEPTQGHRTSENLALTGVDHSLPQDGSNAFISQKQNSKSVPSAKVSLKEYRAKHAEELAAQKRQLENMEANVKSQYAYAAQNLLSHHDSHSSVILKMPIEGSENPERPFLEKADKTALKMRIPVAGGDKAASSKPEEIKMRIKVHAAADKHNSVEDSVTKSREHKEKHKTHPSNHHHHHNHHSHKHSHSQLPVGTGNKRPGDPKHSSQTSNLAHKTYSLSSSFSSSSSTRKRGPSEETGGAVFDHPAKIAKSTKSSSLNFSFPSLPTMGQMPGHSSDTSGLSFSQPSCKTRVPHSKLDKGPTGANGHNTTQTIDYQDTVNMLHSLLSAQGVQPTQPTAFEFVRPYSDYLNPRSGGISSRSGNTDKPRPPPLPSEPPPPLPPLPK
The read-out pIC50 is expressed as -log10 of concentration in moles per litre.

- Compound: "CC(C)O[C@H]1CNC[C@@H]1C(=O)Nc1cc(-c2cccc(NCC3(C)CCOCC3)n2)c(Cl)cn1"
  pIC50: 8.05

Turning now to a further compound:
Look up pIC50: CC1(C)C[C@@H](CNc2nc(-c3cc(NC(=O)[C@@H]4CCCNC4)ncc3Cl)ccc2F)CCO1 (single isomer, unassigned) 9.00

---

molecular target: Cdk9/cyclinT1 (Homo sapiens, UniProt P50750); assay: Cdk9/cyclinT1 IMAP Protocol (fluorescence polarization kinase assay); settings: Cdk9_cyclinT1_IC50, Table V; generated using one of the two Cdk9/cyclinT1 assays (IMAP or Alpha Screen), not stated which; ATP 6 uM
Quantity measured: pIC50
As a rule, pIC50 stands for the negative log10 of the concentration, concentration in M.

Look over these answered cases.
- Compound: "O=C(Nc1cc(-c2cccc(NCC3CCOCC3)n2)c(Cl)cn1)[C@@H]1CCCN(CC(F)(F)F)C1 [Example 11]"
  pIC50: 6.11
- Compound: "COC[C@H]1C[C@@H](C(=O)Nc2cc(-c3cccc(NCC4(C)CCOCC4)n3)c(Cl)cn2)CN1 [Example 246]"
  pIC50: 8.22
- Compound: "O=C(Nc1cc(-c2cccc(NCc3ccccn3)n2)c(Cl)cn1)[C@@H]1CCCNC1 [Example 52]"
  pIC50: 7.42
- Compound: "CC[C@@H]1CC[C@@H](C(=O)Nc2cc(-c3cccc(NCC4CCOCC4)n3)ccn2)CN1 (racemic) [Example 230]"
  pIC50: 8.70

Name the recorded pIC50 for N#CC1(CNc2cccc(-c3cc(NC(=O)[C@@H]4CCCNC4)ncc3Cl)n2)CCOCC1 [Example 238] . 9.00

Returns the measured pIC50 for the input compound. Input: COC(=O)N1CCC[C@H](C(=O)Nc2cc(-c3nc(N[C@H](C)C4CCOCC4)ccc3Cl)c(Cl)cn2)C1 [Example 153] 7.59

Please look up its pIC50: O=C(Nc1cc(-c2ccc(C(F)(F)F)c(NCC3CCOCC3)n2)c(Cl)cn1)[C@@H]1CCCNC1 [Example 217] 8.40

// returns reported pIC50 for input CC[C@@H]1CC[C@@H](C(=O)Nc2cc(-c3ccc(F)c(NCC4CCOCC4)n3)c(Cl)cn2)CN1 (single isomer, unassigned) [Example 256] 9.00

Need pIC50, item CC(C)CCNc1cccc(-c2cc(NC(=O)[C@@H]3CCCNC3)ncc2Cl)n1 [Example 23] 8.05

Sample COCCN1CCC[C@@H](C(=O)Nc2cc(-c3cccc(NCC4CCOCC4)n3)c(Cl)cn2)C1 [Example 16] — what was its pIC50? 6.07

// query pIC50 value for entry O=C(Nc1cc(-c2cccc(NCc3cccc(F)c3)n2)c(Cl)cn1)C1CCCCC1 [Example 2] 6.87

---

target: Cdk9/cyclinT1 (Homo sapiens, UniProt P50750); test: Cdk9/cyclinT1 IMAP Protocol (fluorescence polarization kinase assay); settings: Cdk9_cyclinT1_IC50, Table V; generated using one of the two Cdk9/cyclinT1 assays (IMAP or Alpha Screen), not stated which; ATP 6 uM
Quantity measured: IC50 (nM)
Quick note: give the figure in nM, leave out the unit.

Recorded IC50, per entry:
- Structure notation: "O=C(Nc1cc(-c2cccc(NCC3CCOCC3)n2)c(Cl)cn1)[C@H]1CCCNC1"
  Display unit: "nM"
  IC50: 46
- Structure notation: "CC(C)C(=O)Nc1cc(-c2cccc(NCC3CCOCC3)n2)c(Cl)cn1"
  Display unit: "nM"
  IC50: 11

Now consider the entry below.
# lookup: IC50 of `O=C(Nc1cc(-c2cccc(NCC3CCOCC3)n2)c(Cl)cn1)[C@H]1CNC[C@H]1O` 134

---

molecular target: Cdk9/cyclinT1 (Homo sapiens); experiment: Cdk9/cyclinT1 IMAP Protocol (fluorescence polarization kinase assay); settings: Cdk9_cyclinT1_IC50, Table V; generated using one of the two Cdk9/cyclinT1 assays (IMAP or Alpha Screen), not stated which; ATP 6 uM
Quantity measured: log10(IC50) (log10 of the value in nM)
Remember, log10 of IC50, in nM.

Below are worked cases with known answers.
- Molecule: "O=C(Nc1cc(-c2cccc(NCC3CCOCC3)n2)c(Cl)cn1)C1CCCCNC1 (centres unmarked) [Example 193]"
  log10(IC50): 0.30
- Molecule: "CC1(C)CO[C@@H](CNc2nc(-c3cc(NC(=O)[C@@H]4CCCNC4)ncc3Cl)ccc2F)CO1 (single isomer, unassigned) [Example 264]"
  log10(IC50): 0.00
- Molecule: "CC1(CNc2cccc(-c3cc(NC(=O)[C@@H]4CCCNC4)ncc3Cl)n2)CCOCC1 [Example 207]"
  log10(IC50): 0.00
- Molecule: "CC[C@@H]1CC[C@@H](C(=O)Nc2cc(-c3cccc(NCC4CCOCC4)n3)c(Cl)cn2)CN1 (single isomer, unassigned) [Example 240]"
  log10(IC50): 0.00
- Molecule: "CC1(C)CCC(C(=O)Nc2cc(-c3cccc(NCC4CCOCC4)n3)c(Cl)cn2)CN1 (centres unmarked) [Example 206]"
  log10(IC50): 0.00

Then there is this molecule:
Fill in: log10(IC50) of CC[C@@H]1CC[C@@H](C(=O)Nc2cc(-c3ccc(F)c(NCC4CCOCC4)n3)ccn2)CN1 (racemic) [Example 251] is ___ 0.00

---

target: Cdk9/cyclinT1 (Homo sapiens, UniProt P50750); experiment: Cdk9/cyclinT1 IMAP Protocol (fluorescence polarization kinase assay); settings: Cdk9_cyclinT1_IC50, Table V; generated using one of the two Cdk9/cyclinT1 assays (IMAP or Alpha Screen), not stated which; ATP 6 uM
Quantity measured: pIC50
Interpret pIC50 as the negative base-10 log of the concentration measured in mol/L.

- Compound: "CC1(C)COCC(CNc2cccc(-c3cc(NC(=O)[C@@H]4CCCNC4)ncc3Cl)n2)O1 (stereo partly shown) [Example 219]"
  pIC50: 9.00
- Compound: "C[C@@H]1CC[C@@H](C(=O)Nc2cc(-c3cccc(NC[C@@H]4CCOC(C)(C)C4)n3)ccn2)CN1 (mixture of isomers) [Example 226]"
  pIC50: 9.00
- Compound: "C[C@@H]1CC[C@@H](C(=O)Nc2cc(-c3ccc(F)c(NCC4CCOCC4)n3)c(Cl)cn2)CN1 (single isomer, unassigned) [Example 189]"
  pIC50: 9.00
- Compound: "O=C(Nc1cc(-c2cccc(NCC3CCOCC3)n2)c(Cl)cn1)[C@H]1CCCN1 [Example 57]"
  pIC50: 7.09

Now consider the entry below.
Please provide the recorded pIC50 for CO[C@@H]1CNC[C@H](C(=O)Nc2cc(-c3cccc(NCC4CCOCC4)n3)c(Cl)cn2)C1 (single isomer, unassigned) [Example 211] , tested on Cdk9/cyclinT1 (Homo sapiens, UniProt P50750). 8.70

---

target: Cdk9/cyclinT1 (Homo sapiens, UniProt P50750); experiment: Cdk9/cyclinT1 IMAP Protocol (fluorescence polarization kinase assay); settings: Cdk9_cyclinT1_IC50, Table V; generated using one of the two Cdk9/cyclinT1 assays (IMAP or Alpha Screen), not stated which; ATP 6 uM
Examples of compounds with documented pIC50 follow.
Please express pIC50 as -log10 of the molar concentration.

Sample answers from the record:
- Compound: "C[C@H]1CC[C@H](C(=O)Nc2cc(-c3ccc(F)c(NCC4CCOCC4)n3)c(Cl)cn2)CN1C (single isomer, unassigned)"
  pIC50: 8.40
- Compound: "CN1CCCCC(C(=O)Nc2cc(-c3nc(NCC4CCOCC4)ccc3Cl)c(Cl)cn2)C1 (stereo not shown)"
  pIC50: 7.51
- Compound: "CC1(C)CO[C@H](CNc2nc(-c3cc(NC(=O)[C@@H]4CCCNC4)ncc3Cl)ccc2F)CO1 (single isomer, unassigned)"
  pIC50: 9.00
- Compound: "C[C@H]1CC[C@H](C(=O)Nc2cc(-c3cccc(NC[C@@H]4CCOC(C)(C)C4)n3)c(Cl)cn2)CN1 (single isomer, unassigned)"
  pIC50: 8.70
- Compound: "COC(=O)N1CCC[C@H](C(=O)Nc2cc(-c3nc(NC[C@@H]4CCOC(C)(C)C4)ccc3Cl)c(Cl)cn2)C1 (single isomer, unassigned)"
  pIC50: 9.00
- Compound: "CC1(C)C[C@@H](CNc2ccc(Cl)c(-c3cc(NC(=O)[C@H]4CNCCO4)ncc3Cl)n2)CCO1 (single isomer, unassigned)"
  pIC50: 9.00

For the compound shown here, C[C@@H]1CC[C@@H](C(=O)Nc2cc(-c3cccc(NC[C@@H]4CCOC(C)(C)C4)n3)c(Cl)cn2)CN1 (single isomer, unassigned) [Example 242] , give the reported pIC50. 9.00

May I ask what pIC50 has been recorded for `O=C(Nc1cc(-c2nc(NCC3CCOCC3)ccc2Cl)c(Cl)cn1)[C@H]1CCCNC1` ? 7.85

Requested read-out: pIC50. Entry: COC[C@@H]1CC[C@@H](C(=O)Nc2cc(-c3cccc(NCC4CCOCC4)n3)c(Cl)cn2)CN1 (single isomer, unassigned) [Example 235] 8.70

Please look up its pIC50: `O=C(Nc1cc(-c2cccc(NCC3CCOCC3)n2)c(Cl)cn1)C1CNC1` 7.85
